- experimental-protocol: Glyburide solubility in intravenous dosing solutions
- Assay type: physicochemical
- stated-conditions: formulations of the present disclosure
value-type: Solubility

State its Solubility for this molecule: COc1ccc(Cl)cc1C(=O)NCCc1ccc(S(=O)(=O)NC(=O)NC2CCCCC2)cc1 [glyburide]
> 15 µg/mL

* * *

- experimental-protocol: physchem
- stated-conditions: pH 9.25, aqueous buffer
value-type: Solubility
Just the number plus its unit, please.

State its Solubility for this compound: COc1ccc(Cl)cc1C(=O)NCCc1ccc(S(=O)(=O)NC(=O)NC2CCCCC2)cc1 [glyburide]
480 µg/mL

* * *

- experimental-protocol: physchem
- stated-conditions: pH 9.37, aqueous buffer
value-type: Solubility

State its Solubility for this compound: COc1ccc(Cl)cc1C(=O)NCCc1ccc(S(=O)(=O)NC(=O)NC2CCCCC2)cc1 [glyburide]
720 µg/mL
